In this section we review reported abundance fitness values for a set of variants.
B1: POU domain, class 3, transcription factor 2, residues 356 to 411; numbered along this chain, P20265 (parent)
chain: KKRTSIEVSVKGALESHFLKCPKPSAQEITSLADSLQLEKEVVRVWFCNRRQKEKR

- Variants of: B1
- assay_protocol: abundance fitness (aPCA) (normalised: wild type 0, dead -1); higher = more abundant; growth selection in yeast, the domain comes from the species named
- reported_conditions: Homo sapiens
Respond with the number and no other words.

INSERT INTO measurements (mutant_name, observed_value) VALUES
  ('S9Y', -0.267),
  ('K11T', -0.027);

Find the recorded abundance fitness belonging to V43M and report it.
-0.944

For Q37W , what is its reported abundance fitness?
-0.394

abundance fitness lookup needed for F18K , thanks.
-0.936

Which abundance fitness value is on record for K53V ?
-0.517

Give the measured abundance fitness of T4Q .
-0.107

Hello, the source for this data is the Human Domainome abundance scans (Beltran et al. 2025), in case you need it.
